Assign pKi to each entry below.
Target: Bifunctional purine biosynthesis protein ATIC (Homo sapiens)
Sequence (P31939 whole entry): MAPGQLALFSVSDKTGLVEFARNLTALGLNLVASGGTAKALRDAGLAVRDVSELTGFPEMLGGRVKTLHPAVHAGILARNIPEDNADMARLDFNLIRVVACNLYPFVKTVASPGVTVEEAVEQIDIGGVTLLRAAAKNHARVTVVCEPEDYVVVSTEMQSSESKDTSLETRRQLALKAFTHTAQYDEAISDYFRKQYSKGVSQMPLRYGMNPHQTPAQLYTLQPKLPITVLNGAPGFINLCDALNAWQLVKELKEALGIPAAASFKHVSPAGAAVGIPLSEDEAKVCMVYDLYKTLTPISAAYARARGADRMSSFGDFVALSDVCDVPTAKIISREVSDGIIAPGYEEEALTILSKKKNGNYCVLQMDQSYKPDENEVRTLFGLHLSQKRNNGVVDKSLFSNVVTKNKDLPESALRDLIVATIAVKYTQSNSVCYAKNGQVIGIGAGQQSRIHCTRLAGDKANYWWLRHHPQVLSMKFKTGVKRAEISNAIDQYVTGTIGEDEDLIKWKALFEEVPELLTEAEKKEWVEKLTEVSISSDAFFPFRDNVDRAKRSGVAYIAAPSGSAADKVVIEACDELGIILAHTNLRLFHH
Experiment: Inhibition constant against AICAR formyltransferase
Quick note: pKi means taking -log10 of the concentration in moles per liter.

Which pKi is listed for `O=C(CNC(=O)CNC(=O)c1cccc(I)c1)NCCc1ccccc1` ? 5.10

Which pKi is listed for `COc1ccc(CNC(=O)CN(CC(=O)NCCc2ccccc2)C(=O)CNC(=O)c2cccc(I)c2)cc1` ? 5.51
